Experiment: Plasma pharmacokinetics, Arm II (oral BID), phase 1 trial
Type: in vivo, human
Conditions: human, plasma, po, 130 mg, Arm II PO BID 130 mg, day 1, N=4; read-out: Cmax

{"columns": ["compound", "Cmax, ng/mL"],
 "data": [
  ["Nc1ncc(-c2cnn(CCO)c2)c2scc(-c3ccc(NC(=O)Nc4cccc(F)c4)cc3)c12 [ilorasertib, Ilorasertib]", 600]
]}

* * *

Assay: Plasma pharmacokinetics, Arm I (oral QD), phase 1 trial
Assay type: in vivo, human
Conditions: human, in vivo, po, 180 mg, Tmax
valueType: Tmax (h)

{"columns": ["compoundStructureString", "recordedNumber"],
 "data": [
  ["Nc1ncc(-c2cnn(CCO)c2)c2scc(-c3ccc(NC(=O)Nc4cccc(F)c4)cc3)c12", 4]
]}

The values you see were collected from paper PMC5931107.
